test: Pharmacokinetics (TK) after 30-min IV infusion in monkeys; type: in vivo, Cynomolgus monkeys; conditions: both sexes, cynomolgus monkey, plasma; mean, 2 hr; 2 mg/kg 30-min IV infusion; read-out: Plasma concentration, Mean
MEASUREMENT TYPE: concentration at 2 hr (ng/mL)
Expressed in ng/mL, but write only the number.

C[C@H](OP(=O)(N1CC1)N1CC1)c1ccc([N+](=O)[O-])c(Oc2cccc(C(=O)N(C)C)c2)c1 (single isomer, unassigned)    5.64

Lab book: concentration at 2 hr of C[C@@H](OP(=O)(N1CC1)N1CC1)c1ccc([N+](=O)[O-])c(Oc2cccc(C(=O)N(C)C)c2)c1 (single isomer, unassigned) noted as 1.03

---

tested on: C3A; test: In vitro human tumor cell line cytotoxicity assay; format: cell-based; conditions: Homo sapiens, read-out: RelIC50
Catalogue of IC50 readings, one per entry.
Please respond with the number in nM and leave the unit unwritten.

CC(OP(=O)(N1CC1)N1CC1)c1ccc([N+](=O)[O-])c(Oc2cccc(C(=O)N(C)C)c2)c1 (racemic) [TH 2870]    7.1
C[C@H](OP(=O)(N1CC1)N1CC1)c1ccc([N+](=O)[O-])c(Oc2cccc(C(=O)N(C)C)c2)c1 (single isomer, unassigned) [TH3424]    4.1

# ---- query compound ----
Reported IC50 ( C[C@@H](OP(=O)(N1CC1)N1CC1)c1ccc([N+](=O)[O-])c(Oc2cccc(C(=O)N(C)C)c2)c1 (single isomer, unassigned) [TH3423] ) = 9.6

---

tested on: TALL-1; assay: In vitro human tumor cell line cytotoxicity assay; assay type: cell-based; settings: read-out: RelIC50
MEASUREMENT TYPE: IC50 (nM)
Report only the number, with the unit nM understood.

Query C[C@H](OP(=O)(N1CC1)N1CC1)c1ccc([N+](=O)[O-])c(Oc2cccc(C(=O)N(C)C)c2)c1 (single isomer, unassigned) yields IC50 of 30

---

Listing of recorded concentration at 0.5 hr by entry.
test: Pharmacokinetics (TK) after 30-min IV infusion in monkeys; type: in vivo, Cynomolgus monkeys; conditions: cynomolgus monkey, plasma; male, 0.5 hr; 2 mg/kg 30-min IV infusion; read-out: Plasma concentration
Your answer is read as ng/mL, so omit the unit and give the number.

C[C@@H](OP(=O)(N1CC1)N1CC1)c1ccc([N+](=O)[O-])c(Oc2cccc(C(=O)N(C)C)c2)c1 (single isomer, unassigned)    1420

Proceeding to the next compound to report its concentration at 0.5 hr.
Please fill in: concentration at 0.5 hr reported for C[C@H](OP(=O)(N1CC1)N1CC1)c1ccc([N+](=O)[O-])c(Oc2cccc(C(=O)N(C)C)c2)c1 (single isomer, unassigned) = 2720

---

test system: KG-1; assay: In vitro human tumor cell line cytotoxicity assay; assay type: cell-based; settings: read-out: RelIC50
MEASUREMENT TYPE: IC50

Considering C[C@H](OP(=O)(N1CC1)N1CC1)c1ccc([N+](=O)[O-])c(Oc2cccc(C(=O)N(C)C)c2)c1 (single isomer, unassigned) [TH3424] , its IC50 with KG-1 was recorded as 15.3 nM

---

assay: Pharmacokinetics (TK) after 30-min IV infusion in monkeys; assay type: in vivo, Cynomolgus monkeys; conditions: cynomolgus monkey, plasma; male; 2 mg/kg 30-min IV infusion; read-out: Vss
MEASUREMENT TYPE: Vd (L/kg)
The answer is to be given in L/kg; state only the numeric part.

C[C@@H](OP(=O)(N1CC1)N1CC1)c1ccc([N+](=O)[O-])c(Oc2cccc(C(=O)N(C)C)c2)c1 (single isomer, unassigned) [TH3423]    0.584

Then there is this compound:
So, C[C@H](OP(=O)(N1CC1)N1CC1)c1ccc([N+](=O)[O-])c(Oc2cccc(C(=O)N(C)C)c2)c1 (single isomer, unassigned) [TH3424] ? Its Vd was 0.289
